Cited source: ChEMBL document CHEMBL1221380

System: Plasmodium falciparum
Assay: Antiplasmodial activity against Plasmodium falciparum W2 after 24 hrs by [3H]hypoxanthine incorporation assay
Format: functional, organism-based
endpoint_label: IC50 (µM)

Solved entries (count: 3):
compound: CC1CCN(C(=S)N/N=C/c2ccco2)CC1
units_of_measure: µM
IC50: 36.2
--
compound: CN(C(=S)N/N=C/c1ccco1)C1CCCCC1
units_of_measure: µM
IC50: 21.8
--
compound: OC(c1cc(C(F)(F)F)nc2c(C(F)(F)F)cccc12)C1CCCCN1 (stereo not given)
units_of_measure: µM
IC50: 0.039

(a) S=C(N/N=C/c1ccco1)NC1CCCCC1
(b) S=C(N/N=C/c1ccco1)N1CCCCCC1
QUERY: Compare a and b and name the one whose reported IC50 is smaller. The response must carry the label of the picked entry.
RESULT: a
(a: 20.3 µM, b: 35.8 µM)
